- Tested on: 876862-298-R-J1-PDC complex spheroids, viability % test/control;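 further: spheroids exposed to drugs for 7 days before readout; 100% = DMSO vehicle control wells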
- test: Anticancer human tumor 876862-298-R-J1-PDC patient-derived endometrial carcinoma cell line growth inhibition [CLK]
- run_conditions: second compound 0.316 µM; first compound 0.0316 µM; active compounds read low
measured_attribute: viability, T/C (%)
Only the number, expressed in %, is required.

As a guide, the following entries are already answered.
{"columns": ["compound", "measured_attribute", "obs_value"],
 "data": [
  ["O=c1[nH]cc(F)c(=O)[nH]1 + CNC(=O)c1ccc(Nc2nc(OC3CCCC3)c3c(-c4ccc5nc(C)oc5c4)c[nH]c3n2)c(OC)c1", "viability, T/C", 49.7],
  ["O=c1[nH]cc(F)c(=O)[nH]1 + CN1CCN(c2cc(C(=O)Nc3cc4cc(-c5cnn(C)c5)ccc4cn3)ccn2)CC1", "viability, T/C", 3.11]
]}

Task: // lookup viability, T/C for Nc1ccccc1NC(=O)c1ccc(CNC(=O)OCc2cccnc2)cc1 + CNC(=O)c1ccc(Nc2nc(OC3CCCC3)c3c(-c4ccc5nc(C)oc5c4)c[nH]c3n2)c(OC)c1
Output: 41.2

Task: Which value of viability, T/C has been reported for C=CC(=O)N1CCN(c2nc(=O)n(-c3c(C)ccnc3C(C)C)c3nc(-c4c(O)cccc4F)c(F)cc23)C(C)C1 (stereo unspecified) + CNC(=O)c1ccc(Nc2nc(OC3CCCC3)c3c(-c4ccc5nc(C)oc5c4)c[nH]c3n2)c(OC)c1 in the records?
Output: 42.7

Task: # viability, T/C lookup, item CCCS(=O)(=O)Nc1ccc(F)c(C(=O)c2c[nH]c3ncc(-c4ccc(Cl)cc4)cc23)c1F + CN1CCN(c2cc(C(=O)Nc3cc4cc(-c5cnn(C)c5)ccc4cn3)ccn2)CC1
Output: 4.72

Task: Which measured viability, T/C value corresponds to Cn1ncnc1[C@H]1c2n[nH]c(=O)c3cc(F)cc(c23)N[C@@H]1c1ccc(F)cc1 + CN1CCN(c2cc(C(=O)Nc3cc4cc(-c5cnn(C)c5)ccc4cn3)ccn2)CC1 ?
Output: 2.95

The values you see were collected from PubChem BioAssay AID2060607.
